tested.system: Platelet-derived growth factor receptor alpha (Homo sapiens) (UniProt P16234)
Sequence (P16234 whole entry): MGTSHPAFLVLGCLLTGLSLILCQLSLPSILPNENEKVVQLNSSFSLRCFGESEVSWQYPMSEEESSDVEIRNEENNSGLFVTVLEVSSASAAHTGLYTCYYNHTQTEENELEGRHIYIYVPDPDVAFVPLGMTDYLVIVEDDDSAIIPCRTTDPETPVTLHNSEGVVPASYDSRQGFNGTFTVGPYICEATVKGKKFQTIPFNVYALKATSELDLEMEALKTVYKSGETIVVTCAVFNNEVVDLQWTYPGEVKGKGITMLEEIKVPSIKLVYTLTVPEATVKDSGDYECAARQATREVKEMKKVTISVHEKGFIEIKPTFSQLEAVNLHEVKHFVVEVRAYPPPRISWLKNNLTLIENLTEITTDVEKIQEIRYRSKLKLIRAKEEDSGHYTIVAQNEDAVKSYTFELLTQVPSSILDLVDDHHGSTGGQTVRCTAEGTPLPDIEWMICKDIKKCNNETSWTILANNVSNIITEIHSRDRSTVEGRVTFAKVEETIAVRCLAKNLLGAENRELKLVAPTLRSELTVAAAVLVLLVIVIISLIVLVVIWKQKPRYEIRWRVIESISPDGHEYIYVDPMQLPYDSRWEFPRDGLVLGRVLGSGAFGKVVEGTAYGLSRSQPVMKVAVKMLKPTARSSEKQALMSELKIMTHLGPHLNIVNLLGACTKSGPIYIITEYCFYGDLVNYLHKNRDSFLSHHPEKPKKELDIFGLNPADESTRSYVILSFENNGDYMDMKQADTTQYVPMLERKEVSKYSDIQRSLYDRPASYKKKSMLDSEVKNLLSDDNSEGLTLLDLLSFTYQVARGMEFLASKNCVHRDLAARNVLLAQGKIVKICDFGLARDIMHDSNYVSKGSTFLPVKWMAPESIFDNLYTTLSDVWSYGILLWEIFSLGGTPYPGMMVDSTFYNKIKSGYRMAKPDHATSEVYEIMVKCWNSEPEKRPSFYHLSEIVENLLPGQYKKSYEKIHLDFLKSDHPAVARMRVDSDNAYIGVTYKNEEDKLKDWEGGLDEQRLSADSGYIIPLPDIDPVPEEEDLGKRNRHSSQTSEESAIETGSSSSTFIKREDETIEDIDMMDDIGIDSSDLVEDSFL
setup.conditions: at 0.1 µM
Description: GSK_PKIS: PDGFRA mean inhibition at 0.1 uM [Nanosyn]
measured.metric: inhibition (%)

>>> print(df.to_string())
                              sample_smiles  measured_metric  readout_unit  numeric_value
0  COc1cc(Nc2nccc(-c3cnn4ncccc34)n2)cc(OC)c1       inhibition             %           19.5
1  FC(F)(F)c1ccc(-c2nn3ncccc3c2-c2ccnc(Nc3ccc4c(c3)OCCO4)n2)cc1       inhibition             %            9.5
2  Nc1ccc(C#Cc2cncnc2Nc2ccc(OCc3cccc(F)c3)c(Cl)c2)cc1       inhibition             %           3.02
3  CCS(=O)(=O)c1ccc(OC)c(Nc2nccc(N(C)c3ccc4c(C)n[nH]c4c3)n2)c1       inhibition             %           22.9
4  Nc1nccc(-c2c(-c3ccc(F)cc3)ncn2CCCN2CCOCC2)n1       inhibition             %           4.62

* * *

tested.system: Fibroblast growth factor receptor 3 (Homo sapiens);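 note: each value is a mean percent inhibition of FGFR3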
setup.conditions: at 0.1 µM
measured.metric: inhibition (%)

>>> df
                              sample_smiles                             tested_system  numeric_value
0  COc1cccc(-n2nc(C)c3c(N/N=C(\C)c4ccncc4)ncnc32)c1  Fibroblast growth factor receptor 3 (Homo sapiens)           1.89
1   NC(=O)c1cccc(Nc2nccc(Nc3cccc(F)c3)n2)c1  Fibroblast growth factor receptor 3 (Homo sapiens)           4.22
2  COc1cc2ncnc(Nc3ccc4c(cnn4Cc4ccccc4)c3)c2cc1OC  Fibroblast growth factor receptor 3 (Homo sapiens)            3.3
3  CN(C)C(=O)O[C@H]1CN[C@H](C#Cc2cc3ncnc(Nc4ccc(OCc5cccc(F)c5)c(Cl)c4)c3s2)C1  Fibroblast growth factor receptor 3 (Homo sapiens)            5.3
4             c1ccc(Nc2ncc(-c3ccccc3)o2)cc1  Fibroblast growth factor receptor 3 (Homo sapiens)           7.27
5  ON=C1CCc2cc(-c3nc(C4CCNCC4)[nH]c3-c3ccncc3)ccc21  Fibroblast growth factor receptor 3 (Homo sapiens)            3.1
6  FC(F)(F)c1ccc(-c2nn3ncccc3c2-c2ccnc(Nc3ccc4c(c3)OCCO4)n2)cc1  Fibroblast growth factor receptor 3 (Homo sapiens)           6.49
7  CN(C)C(=O)O[C@@H]1CN[C@@H](C#Cc2cc3ncnc(Nc4ccc(OCc5cccc(F)c5)c(Cl)c4)c3s2)C1  Fibroblast growth factor receptor 3 (Homo sapiens)          -0.96

* * *

System: Tyrosine-protein kinase ABL1 (Homo sapiens), P00519 [E255K]
Sequence (P00519 whole entry E255K): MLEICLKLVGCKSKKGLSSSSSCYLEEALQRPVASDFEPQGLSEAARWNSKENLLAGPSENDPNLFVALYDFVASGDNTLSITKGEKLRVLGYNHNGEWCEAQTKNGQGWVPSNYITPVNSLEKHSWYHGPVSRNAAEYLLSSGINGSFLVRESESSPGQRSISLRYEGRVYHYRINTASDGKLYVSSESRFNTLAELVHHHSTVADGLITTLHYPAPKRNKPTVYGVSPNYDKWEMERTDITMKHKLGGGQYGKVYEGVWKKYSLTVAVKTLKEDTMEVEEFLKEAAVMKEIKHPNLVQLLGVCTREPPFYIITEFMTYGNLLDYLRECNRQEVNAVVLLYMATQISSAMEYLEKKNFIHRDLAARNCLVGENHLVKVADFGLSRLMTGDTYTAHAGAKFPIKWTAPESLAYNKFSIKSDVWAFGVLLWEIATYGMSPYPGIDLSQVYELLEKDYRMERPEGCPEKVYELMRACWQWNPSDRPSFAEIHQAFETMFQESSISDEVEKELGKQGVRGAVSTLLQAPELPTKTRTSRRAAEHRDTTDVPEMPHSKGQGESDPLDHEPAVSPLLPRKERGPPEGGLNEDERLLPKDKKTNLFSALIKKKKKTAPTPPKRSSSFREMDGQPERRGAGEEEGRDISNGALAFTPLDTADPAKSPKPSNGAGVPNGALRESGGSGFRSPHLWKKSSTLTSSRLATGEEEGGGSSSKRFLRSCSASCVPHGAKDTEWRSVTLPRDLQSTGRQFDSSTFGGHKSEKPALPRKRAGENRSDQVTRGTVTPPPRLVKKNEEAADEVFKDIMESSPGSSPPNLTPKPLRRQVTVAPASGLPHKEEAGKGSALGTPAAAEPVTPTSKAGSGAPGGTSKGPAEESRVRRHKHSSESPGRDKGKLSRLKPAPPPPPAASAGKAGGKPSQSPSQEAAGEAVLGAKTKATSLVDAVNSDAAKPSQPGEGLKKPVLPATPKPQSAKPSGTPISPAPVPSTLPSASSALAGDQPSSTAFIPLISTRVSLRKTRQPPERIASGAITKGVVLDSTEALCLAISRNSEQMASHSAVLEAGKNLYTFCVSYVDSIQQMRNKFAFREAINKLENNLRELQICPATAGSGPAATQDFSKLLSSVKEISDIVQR
setup.conditions: at 0.1 µM
measured.metric: inhibition (%)

In [3]: df
Out[3]:
                              sample_smiles                             tested_system  measured_metric  numeric_value
0  COc1ccc(-c2nn3ncccc3c2-c2ccnc(Nc3cccc(C(F)(F)F)c3)n2)cc1  Tyrosine-protein kinase ABL1 (Homo sapiens), P00519 [E255K]       inhibition           1.06
1   Cc1nc(-c2ccccc2)n2nc(NCCCN3CCOCC3)ncc12  Tyrosine-protein kinase ABL1 (Homo sapiens), P00519 [E255K]       inhibition           0.22
2  Nc1nccc(-c2c(-c3ccc(F)cc3)ncn2CCCN2CCOCC2)n1  Tyrosine-protein kinase ABL1 (Homo sapiens), P00519 [E255K]       inhibition           3.15
3   Cc1ccc(O)cc1Nc1ccnc2ccc(S(C)(=O)=O)cc12  Tyrosine-protein kinase ABL1 (Homo sapiens), P00519 [E255K]       inhibition           94.4
4  Nc1ccc(C#Cc2cncnc2Nc2ccc(OCc3cccc(F)c3)c(Cl)c2)cc1  Tyrosine-protein kinase ABL1 (Homo sapiens), P00519 [E255K]       inhibition           2.88
5  Cc1ccc2c(c1)/C(=N/Nc1ccc(S(N)(=O)=O)cc1)C(=O)N2  Tyrosine-protein kinase ABL1 (Homo sapiens), P00519 [E255K]       inhibition           0.74
6  CN(C)c1cc2c(Nc3ccc4c(cnn4Cc4ccccc4)c3)ncnc2cn1  Tyrosine-protein kinase ABL1 (Homo sapiens), P00519 [E255K]       inhibition            1.1
7   COc1ccc2ncnc(Nc3ccc(OCc4ccccc4)cc3)c2c1  Tyrosine-protein kinase ABL1 (Homo sapiens), P00519 [E255K]       inhibition           1.91
8  Cc1ccc(Nc2ccnc(Nc3cccc(C(N)=O)c3)n2)cc1O  Tyrosine-protein kinase ABL1 (Homo sapiens), P00519 [E255K]       inhibition           71.2
9  Cc1ccc2c(-c3ccnc(Nc4cccc(C(F)(F)F)c4)n3)c(-c3ccccc3)nn2n1  Tyrosine-protein kinase ABL1 (Homo sapiens), P00519 [E255K]       inhibition           3.52

* * *

Measured inhibition by item
tested.system: Serine/threonine-protein kinase Sgk1 (Homo sapiens)
Sequence (whole entry): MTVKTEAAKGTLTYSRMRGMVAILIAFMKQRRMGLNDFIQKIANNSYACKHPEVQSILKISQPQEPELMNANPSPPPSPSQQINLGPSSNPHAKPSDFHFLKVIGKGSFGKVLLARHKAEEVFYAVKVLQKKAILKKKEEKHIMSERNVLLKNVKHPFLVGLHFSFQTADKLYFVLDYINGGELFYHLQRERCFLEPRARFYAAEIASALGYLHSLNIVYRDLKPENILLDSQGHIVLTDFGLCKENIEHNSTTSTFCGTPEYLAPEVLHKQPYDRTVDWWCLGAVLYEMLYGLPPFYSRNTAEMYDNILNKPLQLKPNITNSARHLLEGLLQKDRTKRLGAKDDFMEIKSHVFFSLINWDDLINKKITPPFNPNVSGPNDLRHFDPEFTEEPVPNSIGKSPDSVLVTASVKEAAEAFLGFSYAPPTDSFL
setup.conditions: at 0.1 µM
Description: GSK_PKIS: SGK1 mean inhibition at 0.1 uM [Nanosyn]
measured.metric: inhibition (%)

>>> print(df.to_string())
                                    compound  measured_metric  numeric_value
 0  NS(=O)(=O)c1cccc(-c2cc3ccncc3cc2OCc2ccccc2)c1       inhibition           3.46
 1  CN(C)C(=O)O[C@H]1CN[C@H](C#Cc2cc3ncnc(Nc4ccc(OCc5cccc(F)c5)c(Cl)c4)c3s2)C1       inhibition           0.38
 2  CCS(=O)(=O)c1ccc(OC)c(Nc2nccc(N(C)c3ccc4c(C)n[nH]c4c3)n2)c1       inhibition           2.43
 3  Cc1ccc2c(-c3ccnc(Nc4cccc(C(F)(F)F)c4)n3)c(-c3ccccc3)nn2n1       inhibition           2.23
 4  CCS(=O)(=O)c1ccc(OC)c(Nc2ncc(-c3cccc(OC)c3)o2)c1       inhibition           1.35
 5  CN(C)C(=O)O[C@@H]1CN[C@@H](C#Cc2cc3ncnc(Nc4ccc(OCc5cccc(F)c5)c(Cl)c4)c3s2)C1       inhibition           0.97
 6  COc1cc(Nc2nccc(-c3cnn4ncccc34)n2)cc(OC)c1       inhibition           2.68
 7  Cc1ccc(Nc2ccnc(Nc3cccc(C(N)=O)c3)n2)cc1O       inhibition           1.93
 8  CS(=O)(=O)Nc1cccc(-c2ccc3c(NC(=O)C4CC4)n[nH]c3c2)c1       inhibition            1.2
 9  [O-][S+]1CCN(Cc2ccc(-c3ccc4ncnc(Nc5ccc(OCc6ccccc6)c(Cl)c5)c4c3)o2)CC1       inhibition           2.48
10  FC(F)(F)c1ccc(-c2nn3ncccc3c2-c2ccnc(Nc3ccc4c(c3)OCCO4)n2)cc1       inhibition           9.07
11  Nc1ccc(C#Cc2cncnc2Nc2ccc(OCc3cccc(F)c3)c(Cl)c2)cc1       inhibition           1.87
12  CC(C)c1ccc(Nc2nccc(-c3cnn4ncccc34)n2)cc1       inhibition            1.8
13   COc1ccc2ncnc(Nc3ccc(OCc4ccccc4)cc3)c2c1       inhibition           0.21
14         N#Cc1c(NC(=O)c2ccccc2F)sc2c1CCCC2       inhibition           0.71
15  Cc1ccc2c(-c3ccnc(Nc4ccc5c(c4)OCCO5)n3)c(-c3ccc(C(F)(F)F)cc3)nn2n1       inhibition           0.85
16  Oc1cccc(-c2nc(-c3ccccc3)[nH]c2-c2ccncc2)c1       inhibition           0.98
17    N#Cc1cccc(Nc2nccc(-c3cnn4ncccc34)n2)c1       inhibition           2.22
18  CCn1c(-c2nonc2N)nc2c(C#CC(C)(C)O)nc(OCCNC)cc21       inhibition           1.88
19   NC(=O)c1cccc(Nc2nccc(Nc3cccc(F)c3)n2)c1       inhibition           0.89
20  OCc1ccc(-c2nc(-c3ccccn3)c(-c3ccc4c(c3)OCO4)[nH]2)cc1       inhibition           3.65
21  CCCN1CCCC(c2ccc(Nc3nc(Nc4cc(F)ccc4C(N)=O)c4cc[nH]c4n3)c(OC)c2)C1 (stereo not given)       inhibition           3.79
22  O=C1Nc2ccccc2/C1=C/Nc1ccc2[nH]c(=O)[nH]c2c1       inhibition           5.08
23             CCOc1nccc2c1nc(-c1nonc1N)n2CC       inhibition           4.63
24  Nc1nccc(C#Cc2cncnc2Nc2ccc(OCc3cccc(F)c3)c(Cl)c2)n1       inhibition           2.17
